biological target: recombinant human 5-HT6 receptors (Homo sapiens); assay: Competitive radioligand binding ([3H] Lysergic acid diethylamide) to membranes of HeLa cells expressing recombinant human 5-HT6 receptors; conditions: 1.5 nM [3H] Lysergic acid diethylamide, 120 min, 37° C., HeLa cell membranes; read-out: Ki of serotonin 5-HT6 receptor inhibition in the setting of competitive binding
Criterion: Ki strictly under 0.3 nM. Met: True. Not met: False.

hey, is Ki for CNc1nn2cc3c(nc2c1S(=O)(=O)c1ccccc1)CCCC3 lower than 0.3 nM or not?
False

###

molecular target: recombinant human 5-HT6 receptors (Homo sapiens); experiment: Competitive radioligand binding ([3H] Lysergic acid diethylamide) to membranes of HeLa cells expressing recombinant human 5-HT6 receptors; conditions: 1.5 nM [3H] Lysergic acid diethylamide, 120 min, 37° C., HeLa cell membranes; read-out: IC50 of serotonin 5-HT6 receptor inhibition in the setting of competitive binding
reported-property: pIC50
// pIC50: -log10(molar conc.)

Solved entries:
{"columns": ["compound", "pIC50"],
 "data": [
  ["CNc1nn2c3c(cnc2c1S(=O)(=O)c1ccccc1)CCC3 [1.1(1)]", 9.80],
  ["CNc1nn2c3c(c(C)nc2c1S(=O)(=O)c1ccccc1)CCC3 [1.1(3)]", 9.36],
  ["CNc1nn2c3c(cnc2c1S(=O)(=O)c1ccccc1)CCCC3 [1.2(1)]", 9.62],
  ["CNc1nn2c3c(c(C)nc2c1S(=O)(=O)c1ccccc1)CCCC3 [1.2(3)]", 8.98],
  ["CNc1nn2cc3c(nc2c1S(=O)(=O)c1ccccc1)CCCC3 [2(1)]", 8.97]
]}

Switching to the query record.
Lab request: please report pIC50 under test system recombinant human 5-HT6 receptors (Homo sapiens) for CNc1nn2c(C)c3c(nc2c1S(=O)(=O)c1ccccc1)CCCC3 [2(2)]
9.26

###

biological target: serotonin 5-HT6 receptor (Homo sapiens); assay: Functional assay: antagonism of serotonin-induced intracellular cAMP (LANCE cAMP) in HEK 293 cells expressing 5-HT6 receptor; details: HEK 293 cells with expressed 5-HT6 receptor, read-out: IC50 of serotonin 5-HT6 receptor inhibition in the setting of functional assay
Sequence (P50406 whole entry): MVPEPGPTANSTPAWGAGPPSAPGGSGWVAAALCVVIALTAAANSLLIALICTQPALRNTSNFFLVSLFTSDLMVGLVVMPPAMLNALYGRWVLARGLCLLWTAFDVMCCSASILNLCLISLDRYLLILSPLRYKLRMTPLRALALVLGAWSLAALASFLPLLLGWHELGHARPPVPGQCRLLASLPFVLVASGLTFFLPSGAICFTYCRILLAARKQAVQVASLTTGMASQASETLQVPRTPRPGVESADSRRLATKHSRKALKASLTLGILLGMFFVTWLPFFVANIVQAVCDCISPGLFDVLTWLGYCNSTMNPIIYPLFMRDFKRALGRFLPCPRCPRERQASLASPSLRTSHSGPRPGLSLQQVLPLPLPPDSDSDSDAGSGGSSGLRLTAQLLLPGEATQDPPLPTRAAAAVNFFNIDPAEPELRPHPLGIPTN
reported-property: pIC50
// pIC50: -log10(molar conc.)

{"columns": ["molecule", "pIC50"],
 "data": [
  ["CNc1nn2c3c(cnc2c1S(=O)(=O)c1ccccc1)CCC3 [1.1(1)]", 8.32],
  ["CNc1nn2c3c(cnc2c1S(=O)(=O)c1ccccc1)CCCC3 [1.2(1)]", 8.36],
  ["CNc1nn2c3c(c(C)nc2c1S(=O)(=O)c1ccccc1)CCC3 [1.1(3)]", 8.15],
  ["CNc1nn2c(C)c3c(nc2c1S(=O)(=O)c1ccccc1)CCCC3 [2(2)]", 7.81]
]}

Switching to the query record.
// pIC50 lookup, key: CNc1nn2cc3c(nc2c1S(=O)(=O)c1ccccc1)CCCC3 [2(1)]
8.12

###

target: recombinant human 5-HT6 receptors (Homo sapiens); test: Competitive radioligand binding ([3H] Lysergic acid diethylamide) to membranes of HeLa cells expressing recombinant human 5-HT6 receptors; conditions: 1.5 nM [3H] Lysergic acid diethylamide, 120 min, 37° C., HeLa cell membranes; read-out: Ki of serotonin 5-HT6 receptor inhibition in the setting of competitive binding
reported-property: Ki (nM)
# number only, unit nM dropped from output

// Ki lookup, key: CNc1nn2c3c(cnc2c1S(=O)(=O)c1ccccc1)CCC3 [1.1(1)]
0.073

###

molecular target: recombinant human 5-HT6 receptors (Homo sapiens, UniProt P50406); test: Competitive radioligand binding ([3H] Lysergic acid diethylamide) to membranes of HeLa cells expressing recombinant human 5-HT6 receptors; conditions: 1.5 nM [3H] Lysergic acid diethylamide, 120 min, 37° C., HeLa cell membranes; read-out: Ki of serotonin 5-HT6 receptor inhibition in the setting of competitive binding
Sequence (P50406 whole entry): as above
The reader will find reported Ki values listed item by item below.
# number only, unit nM dropped from output

{"columns": ["molecule", "Ki [nM]"],
 "data": [
  ["CNc1nn2c3c(c(C)nc2c1S(=O)(=O)c1ccccc1)CCCC3 [1.2(3)]", 0.49],
  ["CNc1nn2c(C)c3c(nc2c1S(=O)(=O)c1ccccc1)CCCC3 [2(2)]", 0.256],
  ["CNc1nn2c3c(cnc2c1S(=O)(=O)c1ccccc1)CCCC3 [1.2(1)]", 0.112]
]}

Switching to the query record.
// Ki lookup, key: CNc1nn2c3c(c(C)nc2c1S(=O)(=O)c1ccccc1)CCC3 [1.1(3)]
0.202
